// data source = patent US20210276977A1

target: Full length Human HDAC1 (Homo sapiens); construct: Full length Human HDAC1; His (C); FLAG (C); host or cells: baculovirus expression system; experiment: HDAC1 enzymatic assay (deacetylation of FAM-labeled peptide substrate, microfluidic electrophoresis); format: biochemical; details: recombinant enzymatic assay, Table 2, class symbols
Sequence (Q13547 whole entry): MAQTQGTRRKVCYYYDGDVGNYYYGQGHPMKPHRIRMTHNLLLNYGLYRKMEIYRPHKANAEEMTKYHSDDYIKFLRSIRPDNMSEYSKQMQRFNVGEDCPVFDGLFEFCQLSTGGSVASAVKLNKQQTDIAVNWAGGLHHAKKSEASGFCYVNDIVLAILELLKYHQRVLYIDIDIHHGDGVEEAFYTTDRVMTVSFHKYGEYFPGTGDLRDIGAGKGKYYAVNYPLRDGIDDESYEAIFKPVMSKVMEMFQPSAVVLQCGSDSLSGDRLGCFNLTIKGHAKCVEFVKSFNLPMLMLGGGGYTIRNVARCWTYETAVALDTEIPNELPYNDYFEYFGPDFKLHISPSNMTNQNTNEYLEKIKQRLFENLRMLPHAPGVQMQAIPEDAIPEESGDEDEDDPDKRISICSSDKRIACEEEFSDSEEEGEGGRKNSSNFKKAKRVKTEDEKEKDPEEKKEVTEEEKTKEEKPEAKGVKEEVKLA
pIC50: −log10 of the molar value.
Experimental readout: pIC50

The examples below pair each entry with its known result.
{"Smiles text": "Nc1ccc(-c2ccc(F)cc2F)nc1NC(=O)N1CC(Cc2ccncc2)C1", "Experimental target": "Full length Human HDAC1 (Homo sapiens)", "Result value": "< 5.70"}
{"Smiles text": "CC(F)(F)c1cnc(CC2CN(C(=O)Nc3nc(-c4ccc(F)cc4)ccc3N)C2)nc1", "Experimental target": "Full length Human HDAC1 (Homo sapiens)", "Result value": "> 6.30"}
{"Smiles text": "Nc1ccc(-c2ccc(F)cc2)nc1NC(=O)N1CC(Cc2cnc(C(F)(F)F)nc2)C1", "Experimental target": "Full length Human HDAC1 (Homo sapiens)", "Result value": "< 5.70"}
{"Smiles text": "Nc1ccc(-c2ccc(F)cc2)nc1NC(=O)N1CC(Cc2ncc(F)cn2)C1", "Experimental target": "Full length Human HDAC1 (Homo sapiens)", "Result value": "> 6.30"}

// next entry
What value of measured pIC50 is listed for Cc1cnc(CC2CN(C(=O)Nc3nc(-c4ccc(F)cc4F)ccc3N)C2)nc1 ?
< 5.70

----------
target: Full length Human HDAC2 (Homo sapiens, UniProt Q92769); construct: Full length Human HDAC2; FLAG (C); host or cells: baculovirus expression system; assay: HDAC2 enzymatic assay (deacetylation of FAM-labeled peptide substrate, microfluidic electrophoresis); type: biochemical; conditions: recombinant enzymatic assay, Table 4, numeric
Sequence (Q92769 whole entry): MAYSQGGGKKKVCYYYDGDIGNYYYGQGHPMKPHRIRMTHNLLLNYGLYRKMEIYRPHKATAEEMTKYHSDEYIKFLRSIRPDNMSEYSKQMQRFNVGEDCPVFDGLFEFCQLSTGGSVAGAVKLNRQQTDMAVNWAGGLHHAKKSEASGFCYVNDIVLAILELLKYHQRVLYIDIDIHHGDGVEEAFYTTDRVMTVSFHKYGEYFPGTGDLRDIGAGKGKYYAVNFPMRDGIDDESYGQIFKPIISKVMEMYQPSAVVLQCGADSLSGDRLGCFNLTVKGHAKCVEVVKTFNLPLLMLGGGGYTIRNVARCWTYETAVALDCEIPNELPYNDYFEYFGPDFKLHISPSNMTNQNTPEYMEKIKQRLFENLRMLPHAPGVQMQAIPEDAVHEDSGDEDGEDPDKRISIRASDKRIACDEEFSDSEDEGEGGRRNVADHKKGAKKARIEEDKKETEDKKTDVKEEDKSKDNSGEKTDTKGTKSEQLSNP
Experimental readout: pIC50
Lab note: report pIC50 as minus log10 of the concentration in molar units, number only.

What value of measured pIC50 is listed for Cc1cnc(CC2CN(C(=O)Nc3nc(-c4ccc(F)cc4F)ccc3N)C2)cn1 ?
6.23

What value of measured pIC50 is listed for Cc1cnc(C2CN(C(=O)Nc3nc(-c4ccc(F)cc4F)ccc3N)C2)cn1 [Comparator C, reference compound] ?
4.87

What value of measured pIC50 is listed for Nc1ccc(-c2ccc(F)cc2F)nc1NC(=O)N1CC(c2ncccn2)C1 [Comparator A, reference compound] ?
5.28

----------
target: HDAC2 (Homo sapiens, UniProt Q92769); construct: host or cells: SH-SY5Y cells; assay: HDAC2 Enzymatic Inhibition Assay in SH-SY5Y Cell Lysate with an Exogenous Substrate (HDAC-Glo 2); assay type: cell-based; settings: SH-SY5Y cells, five hours incubation, Table 3, class symbols
Sequence (Q92769 whole entry): as above
pIC50: −log10 of the molar value.
Experimental readout: pIC50

The examples below pair each entry with its known result.
{"Molecule": "Nc1ccc(-c2ccc(F)cc2)nc1NC(=O)N1CC(C(F)(F)c2ncc(F)cn2)C1 [Compound 38]", "Experimental target": "HDAC2 (Homo sapiens, UniProt Q92769)", "pIC50": "6.00 to 6.30"}
{"Molecule": "Cc1ncc(CC2CN(C(=O)Nc3nc(-c4ccc(F)cc4)ccc3N)C2)cn1 [Compound 80]", "Experimental target": "HDAC2 (Homo sapiens, UniProt Q92769)", "pIC50": "5.70 to 6.00"}

// next entry
What value of measured pIC50 is listed for Nc1ccc(-c2ccc(F)cc2F)nc1NC(=O)N1CC(Cc2ncco2)C1 [Compound 22] ?
6.00 to 6.30
